- Tested on: Plasmodium berghei
- PROTOCOL: Screen against P. berghei liver stage (PbLuc), transformed with Luciferase, at 10uM
- Type: functional, HepG2
- CONDITION NOTES: tested at 10 uM
Hit rate of the full screen: of about 69,000 compounds, about 8,600 (12%) showed an effect of 50% or more. Only a selection was taken, and strong results are over-represented in it overall.
MEASURE: INHIBITION
Remember to follow the number with its unit.

The cases that follow already have their INHIBITION on record.
COc1cc(CN2CCn3c(CO)nnc3C2)ccc1OC(C)C : 35.2%
O=C(c1cccc(CNS(=O)(=O)c2ccc(F)cc2)c1)N1CCCC1 : 15.6%
CC(C)n1ccnc1CN1CCCN(C(=O)c2cnn(C)c2)CC1 : 10.9165%

So, "COc1cc2nc3n(c(=O)c2cc1OC)CCN(C(=O)C(C)(C)C)CC3" ? Its INHIBITION was 32.3%

So, CCCC12CN3CC(CCC)(CN(C1)C3c1[nH]c(=O)[nH]c(=O)c1C)C2=O (stereo unspecified) ? Its INHIBITION was 17.1%

So, "Cc1ccc(CN2C[C@H]3CN(Cc4ccccc4Cl)CCN3C2=O)cc1" ? Its INHIBITION was -45.5%

So, Cc1ccc(CN2CCN(C(=O)c3ccccc3O)C(C)C2=O)cc1 (stereo unspecified) ? Its INHIBITION was 37.6%

So, "CC(C)Cc1cc(NC(=O)c2ccncc2)n(C)n1" ? Its INHIBITION was 48.4%

So, O=C(c1c[nH]cn1)N1CCC(F)(F)C2(CCN(c3cccc(F)c3)C2)C1 (stereo unspecified) ? Its INHIBITION was 21.7%

So, COCCOc1ccc(CNC2CCc3ncnn3C2)cc1OC (stereo unspecified) ? Its INHIBITION was 49.5%

So, COCCN1CC(C(=O)N(CCN(C)C)Cc2ccc(C)s2)CC1=O (stereo unspecified) ? Its INHIBITION was 38.3%

====

The entries below are paired with their reported INHIBITION.
- System: Plasmodium berghei
- PROTOCOL: Screen against P. berghei liver stage (PbLuc), transformed with Luciferase, at 10uM
- Assay type: functional, HepG2
- CONDITION NOTES: tested at 10 uM
Out of some 69,000 compounds screened, about 8,600 (12%) showed an effect of 50% or more. The full list was thinned out, with strong results kept by preference.
Numbers only; they are read as %.

CN(Cc1ccco1)C(=O)C1CCCc2ccccc21 (stereo unspecified) : 50.5
COCCn1c2c(ccc1=O)CC(NC(=O)c1cscn1)CC2 (stereo unspecified) : 70.2
CC(C)CN1C(=O)C2(CCN(Cc3cccs3)C2)c2ccccc21 (stereo unspecified) : 20.4
O=C(CN1C(=O)CCC1=O)NCC1(O)CCc2ccccc21 (stereo unspecified) : 5.58
CN(CCc1ccccc1)C(=O)c1cccnc1OCC(F)(F)F : 45.1
CCCc1nc(N(C)CCc2noc(C(C)C)n2)c2cnn(C)c2n1 : 42.3
Cc1cnc(-c2nc(NC3CC3)ncc2-c2onc(C)c2C)cn1 : 0.301
CC(C)N1CCC(CC(=O)N2CCN(Cc3nccn3C)CC2)CC1 : 58.5
CNc1ncc(CN(C)c2nc(C3CCCC3)nc3c2cnn3C)cn1 : 24.7
O=C(NC1CCc2c(ccc(=O)n2CC2CC2)C1)c1cscn1 (stereo unspecified) : 41.2

So, O=C(Cn1c(=O)oc2ccccc21)NCC1(O)CCc2ccccc21 (stereo unspecified) ? Its INHIBITION was -27.3

So, O=C(Cn1cncn1)NCC1(O)CCCc2ccccc21 (stereo unspecified) ? Its INHIBITION was 10.9

So, Cc1cnn(CC(=O)NCC2(O)CCCc3ccccc32)c1 (stereo unspecified) ? Its INHIBITION was 80.5

So, CN(C)CCn1c2c(ccc1=O)CC(NC(=O)c1cnccn1)CC2 (stereo unspecified) ? Its INHIBITION was 14.6

So, "COCC(=O)N1CCC(c2csc(NC(C)=O)n2)CC1" ? Its INHIBITION was 17.1

So, "CN1C[C@H](COCC2CC2)[C@H]2CCN(Cc3ccco3)CC[C@H]2C1=O" ? Its INHIBITION was 33.4

====

- Test system: Plasmodium berghei
- PROTOCOL: Screen against P. berghei liver stage (PbLuc), transformed with Luciferase, at 10uM
- Assay type: functional, HepG2
- CONDITION NOTES: tested at 10 uM
The campaign covered roughly 69,000 compounds. About 8,600 (12%) showed an effect of 50% or more. The entries come from a sample that favours strong results as a whole.
Hi! Just check whether INHIBITION is below 30%. Below gives class 1, equal or above gives class 0.

Here are 4 compounds together with their reported answers.
CN(C)C(=O)Cn1cc(C(=O)NCCc2ccc(C(F)(F)F)cc2)nn1 : class 1
CNS(=O)(=O)CCn1cc(-c2cc3c(cc2OC)CCC3)nn1 : class 0
CN1[C@H](CN2CCCC2)C[C@@H]2CN(C(=O)Cc3ccsc3)CC[C@@H]21 : class 1
CCn1cc(CN2CCCN(C(=O)c3cc(C)no3)CC2)cn1 : class 1

Okay, next one:
Is 30% strictly greater than the compound's reported INHIBITION? compound: Cc1c(C2CCCN(C(=O)Cc3ccccn3)C2)n2c(nc1=O)CCC2 (stereo not given)
class 0

====

- Tested on: Plasmodium berghei
- PROTOCOL: Screen against P. berghei liver stage (PbLuc), transformed with Luciferase, at 10uM
- Assay type: functional, HepG2
- CONDITION NOTES: tested at 10 uM
About 8,600 (12%) of roughly 69,000 compounds showed an effect of 50% or more. What follows is part of a selection rich in strong results, with near analogues and random picks from the rest.
The entries below are paired with their reported INHIBITION.
Numbers only; they are read as %.

The cases that follow already have their INHIBITION on record.
CN(C)C1(CNc2nccc(C3CCCC3)n2)CCOCC1 : -15.3
Cc1cnn(CC2CN(Cc3nc4ccccc4s3)CCO2)c1 (stereo unspecified) : 74.4
Cc1cnn(CC2CN(CCCS(C)(=O)=O)CCO2)c1 (stereo unspecified) : -12.1
c1ccc(-n2nc(CNC3CCc4ncnn4C3)c3c2CCC3)cc1 (stereo unspecified) : 33.25
Cc1cnn(CC2CN(Cc3nc4ccccc4n3C)CCO2)c1 (stereo unspecified) : -43.6

So, CCc1nnc(CN2CCOC(Cn3cccn3)C2)o1 (stereo unspecified) ? Its INHIBITION was -5.25

So, "CC(C)(C)c1ncc(C(=O)NCCNC(=O)c2ccco2)s1" ? Its INHIBITION was -21.5

====

The entries below are paired with their reported INHIBITION.
- System: Plasmodium berghei
- PROTOCOL: Screen against P. berghei liver stage (PbLuc), transformed with Luciferase, at 10uM
- Assay type: functional, HepG2
- CONDITION NOTES: tested at 10 uM
The whole screen tested about 69,000 compounds, of which about 8,600 (12%) showed an effect of 50% or more. This excerpt belongs to a sample that is enriched for strong results.

COC(=O)c1ccc(CNC(=O)Nc2ccc(=O)n(C)c2)cc1 : 59.3%
COc1ccc(CNC(=O)c2ccc(=O)n(C)c2)cc1C : 11.8%
CCOc1ccnc(N2CCN(C(=O)c3cc[nH]n3)CC2)n1 : -1.14%
COc1cccc(-c2ccc(CNC(=O)c3ccc(=O)n(C)c3)cc2)c1 : 72.3%
COc1cccc(CCNC(=O)c2ccc(=O)n(C)c2)c1 : 24.2%

Moving on to the next compound.
So, "Cn1cc(Cl)cc1C(=O)N1CCN(Cc2cccs2)CC1" ? Its INHIBITION was -13.575%

====

The entries below are paired with their reported INHIBITION.
- System: Plasmodium berghei
- PROTOCOL: Screen against P. berghei liver stage (PbLuc), transformed with Luciferase, at 10uM
- Type: functional, HepG2
- CONDITION NOTES: tested at 10 uM
The whole screen tested about 69,000 compounds, of which about 8,600 (12%) showed an effect of 50% or more. The list comes from a sample in which strong results are over-represented; it also holds close analogues and randomly drawn compounds.
Numbers only; they are read as %.

CC(C)(CO)CCCNC(=O)NC1(C)Cc2ccccc2C1 : 47.2
CN(C)C(=O)CC1CC2(CCN(CC3CC3)CC2)c2cc(F)ccc21 (stereo unspecified) : 35.3
O=S1(=O)c2ccccc2C2(CCN(Cc3cccnc3)C2)N1CC1CC1 (stereo unspecified) : 76.5
CN(C)CCn1c(=O)n(C)c(=O)c2ccccc21 : -40.3
CCN1CCC2(CC1)CC(CC(=O)N(C)C)c1ccc(F)cc12 (stereo unspecified) : 53
CCC(=O)N1CCC2(CC1)CC(CC(N)=O)c1ccc(F)cc12 (stereo unspecified) : -26.5
CCC(=O)N1CCC2(CC1)CC(CC(=O)N(C)C)c1ccc(F)cc12 (stereo unspecified) : 51.2
c1cc(CN2CCO[C@H]3[C@H](OCCN4CCCC4)CC[C@@H]32)co1 : 48

So, "Cc1cc(Cl)cc(C)c1CNC1CCN(CC(=O)N(C)C)CC1" ? Its INHIBITION was 56.1

So, "CCS(=O)(=O)N1C[C@@H](OCc2cccnc2)[C@H]2OCCC[C@H]21" ? Its INHIBITION was 44.9

So, CCNC(=O)CC1CC2(CCN(C(C)=O)CC2)c2cc(F)ccc21 (stereo unspecified) ? Its INHIBITION was 31.4

Entry source: ChEMBL document CHEMBL4513216
